// data source = PubChem BioAssay (NCI)

System: SK-OV-3 ovarian
Test: NCI tumour cell line growth inhibition, 48 h
ENDPOINT NAME: TGI

Some solved cases for reference:
COc1cc(N(CCC#N)CCC#N)ccc1/C(N=Nc1cccc(C)c1)=N\NC(=O)c1ccc(C)cc1: > 100 µM
O=[N+]([O-])c1ccc2nc(=S)[nH]n2c1: > 100 µM
C#CC1(O)CC(c2ccccc2)N(C)C(c2ccccc2)C1 (stereo not given): > 100 µM
C=C1C(OCCO)OC2O[C@]3(C)CCC4[C@H](C)CCC1C24OO3 (stereo not given in full): > 100 µM
CCOC(=O)c1c[nH]c2cc3c(cc2c1=O)CCS3: > 100 µM
CN1C(=O)C(C)(C)Oc2c(-c3cn(C)c(=O)c4[nH]ccc34)cc(S(C)(=O)=O)cc21: 7.04 µM
NS(=O)(=O)c1ccc(N=Nc2c(=O)[nH]c3ccc4[nH]cccc4c23)cc1: > 25 µM
COc1cc2c3c(n(CCCN4CCN(CCO)CC4)c(=O)c2cc1OC)-c1cc2c(cc1C3=O)OCO2: > 78.9 µM
CC(C)(C)OC(=O)CC(NC(=O)OC(C)(C)C)C(=O)Oc1ccc([N+](=O)[O-])cc1 (stereo not given): > 100 µM

Entry CC1OC(n2cnc3c(N)nc(Cl)nc32)C(C)(O)C1O (stereo not given) , SK-OV-3 ovarian data, TGI value: > 25 µM
